# Transporter (Rattus norvegicus): pIC50 values follow
# Sequence (Q63380 whole entry): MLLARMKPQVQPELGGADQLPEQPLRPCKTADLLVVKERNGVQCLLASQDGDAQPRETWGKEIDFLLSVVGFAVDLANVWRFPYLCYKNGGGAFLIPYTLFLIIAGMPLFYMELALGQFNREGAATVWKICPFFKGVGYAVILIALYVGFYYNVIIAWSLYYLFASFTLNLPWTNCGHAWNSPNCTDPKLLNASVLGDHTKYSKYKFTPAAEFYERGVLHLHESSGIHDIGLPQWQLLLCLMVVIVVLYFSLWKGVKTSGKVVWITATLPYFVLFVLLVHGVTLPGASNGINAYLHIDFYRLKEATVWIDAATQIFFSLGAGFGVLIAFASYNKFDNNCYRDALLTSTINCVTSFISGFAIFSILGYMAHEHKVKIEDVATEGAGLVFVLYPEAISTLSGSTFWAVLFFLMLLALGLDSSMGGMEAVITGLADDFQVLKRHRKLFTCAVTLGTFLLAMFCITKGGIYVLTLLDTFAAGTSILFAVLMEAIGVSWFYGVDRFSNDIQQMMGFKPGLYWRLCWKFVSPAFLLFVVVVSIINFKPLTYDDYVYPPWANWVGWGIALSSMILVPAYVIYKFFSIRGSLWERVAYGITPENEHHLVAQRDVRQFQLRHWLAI
The value called pIC50 is obtained by taking minus log10 of the concentration in mol/L.

molecule: CN(C)CC(c1cccc(C(F)(F)F)c1)C1(O)CCCCC1 (stereo not drawn)
pIC50: 6.44

// fetch pIC50 for CN(C)CC(c1cccc(Cl)c1)C1(O)CCCCC1 (stereo not drawn) ; system: Transporter (Rattus norvegicus) 6.80

Param request: pIC50 | system Transporter (Rattus norvegicus) | item COc1cccc(C(CN(C)C)C2(O)CCCCC2)c1 (stereo not drawn) 6.21

---

Assay: Plasma concentration in Sprague-Dawley rat at 1 mg/kg, iv after 0.5 hrs
Assay type: ADME, organism-based
Parameters: dose 1 mg/kg, route intravenous
metric: concentration at 0.5 h (ng/mL)
I only need the number, in ng/mL, no unit after it.

Kindly indicate its recorded concentration at 0.5 h. Item: `CN1CCN(C[C@H](c2cccc(OC(F)(F)F)c2)C2(O)CCCCC2)CC1.Cl.Cl` 187

---

Test: AUC (0 to infinity) in Sprague-Dawley rat at 1 mg/kg, iv
Format: ADME, organism-based
Parameters: time infinity, dose 1 mg/kg, route intravenous
Details: plasma
metric: AUC(0-inf) (ng·h/mL)
Lab book: enter the figure in ng·h/mL, no units written.

Using known records, supply AUC(0-inf) for `CN1CCN(C[C@H](c2cccc(OC(F)(F)F)c2)C2(O)CCCCC2)CC1.Cl.Cl` 367

---

Target: 5-hydroxytryptamine receptor 1B (Homo sapiens)
Sequence (P28222 whole entry): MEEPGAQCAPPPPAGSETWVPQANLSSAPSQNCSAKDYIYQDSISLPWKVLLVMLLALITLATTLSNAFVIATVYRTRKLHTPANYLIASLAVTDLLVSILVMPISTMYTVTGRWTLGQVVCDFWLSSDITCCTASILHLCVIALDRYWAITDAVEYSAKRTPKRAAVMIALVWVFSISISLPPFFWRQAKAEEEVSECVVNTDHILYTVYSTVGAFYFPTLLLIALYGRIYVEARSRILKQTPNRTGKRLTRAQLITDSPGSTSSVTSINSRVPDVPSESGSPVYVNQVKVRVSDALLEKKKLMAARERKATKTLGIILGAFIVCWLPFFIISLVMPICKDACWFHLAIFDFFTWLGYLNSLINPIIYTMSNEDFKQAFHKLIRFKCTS
Experiment: Activity at 5HT1B receptor assessed as calcium mobilization by FLIPR
pEC50: −log10 of the molar value.
metric: pEC50

Output measured pEC50 for this item: `CN1CCN(C[C@H](c2cccc(OC(F)(F)F)c2)C2(O)CCCCC2)CC1.Cl.Cl` < 5.00

---

Molecular target: Sodium-dependent noradrenaline transporter (Homo sapiens)
Sequence (P23975 whole entry): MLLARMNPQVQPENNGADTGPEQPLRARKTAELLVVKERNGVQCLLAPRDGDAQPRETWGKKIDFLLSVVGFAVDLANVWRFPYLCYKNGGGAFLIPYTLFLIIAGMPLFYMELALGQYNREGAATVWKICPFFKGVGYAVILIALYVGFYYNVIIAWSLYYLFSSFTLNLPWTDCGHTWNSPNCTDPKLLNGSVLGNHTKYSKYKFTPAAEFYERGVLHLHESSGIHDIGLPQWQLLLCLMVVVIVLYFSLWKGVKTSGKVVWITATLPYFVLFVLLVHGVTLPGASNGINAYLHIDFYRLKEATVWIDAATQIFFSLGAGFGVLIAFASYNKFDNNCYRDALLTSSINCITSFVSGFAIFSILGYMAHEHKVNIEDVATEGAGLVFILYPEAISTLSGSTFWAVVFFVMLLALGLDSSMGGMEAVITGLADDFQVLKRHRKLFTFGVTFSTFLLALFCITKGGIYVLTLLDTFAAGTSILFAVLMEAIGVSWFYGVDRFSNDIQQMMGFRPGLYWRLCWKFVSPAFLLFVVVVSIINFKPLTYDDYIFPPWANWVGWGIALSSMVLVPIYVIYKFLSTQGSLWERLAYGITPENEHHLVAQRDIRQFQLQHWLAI
pKi: −log10 of the molar value.
Please enter TRUE where pKi is greater than or equal to 7, and FALSE where it is lower.

molecule: OC1([C@@H](CN2CCNCC2)c2cccc(OC(F)(F)F)c2)CCCCC1
assigned.category: FALSE

molecule: OC1([C@H](CN2CCNCC2)c2cccc(Cl)c2)CCCCC1
assigned.category: TRUE

molecule: COc1cccc(C(CN2CCN(C)CC2)C2(O)CCCCC2)c1 (stereo not drawn)
assigned.category: FALSE

molecule: CN1CCN(C[C@@H](c2cccc(Cl)c2)C2(O)CCCCC2)CC1
assigned.category: FALSE

molecule: CN1CCN(CC(c2cccc(F)c2)C2(O)CCCCC2)CC1 (stereo not drawn)
assigned.category: FALSE

Okay, next one:
# check: pKi of OC1(C(CN2CCNCC2)c2ccc(Cl)cc2)CCCCC1 (stereo not drawn) is greater than or equal to 7 FALSE

---

Assay: Plasma concentration in Sprague-Dawley rat at 30 mg/kg, ip after […]
Format: ADME, organism-based
Parameters: dose 30 mg/kg, route intraperitoneal
metric: concentration at […] (ng/mL)
The reply should be a number in ng/mL, with the unit left off.

Indicate its recorded concentration at […]; the molecule in question is `CN1CCN(C[C@H](c2cccc(OC(F)(F)F)c2)C2(O)CCCCC2)CC1.Cl.Cl` 1580

---

Assay: AUC (0 to infinity) in Sprague-Dawley rat at 30 mg/kg, po
Format: ADME, organism-based
Parameters: time infinity, dose 30 mg/kg, route oral
Details: plasma
metric: AUC(0-inf) (ng·h/mL)
# value in ng·h/mL; strip the unit string

Note AUC(0-inf) for the molecule shown: `CN1CCN(C[C@H](c2cccc(OC(F)(F)F)c2)C2(O)CCCCC2)CC1.Cl.Cl` 931

---

Sodium-dependent serotonin transporter (Homo sapiens, UniProt P31645) data, read-out pIC50
Scale for pIC50: -log10 of concentration given in mol/L; no unit attached.

compound: OC1([C@H](CN2CCNCC2)c2cccc(Cl)c2)CCCCC1
numeric.result: 5.57

compound: OC1([C@@H](CN2CCNCC2)c2cccc(Cl)c2)CCCCC1
numeric.result: 5.21

compound: CN(C)CC(c1cccc(C(F)(F)F)c1)C1(O)CCCCC1 (centres undefined)
numeric.result: 6.27

Now for a further compound.
// fetch pIC50 for COc1cccc(C(CN(C)C)C2(O)CCCCC2)c1 (centres undefined) ; system: Sodium-dependent serotonin transporter (Homo sapiens, UniProt P31645) 7.06

---

Biological target: 5-hydroxytryptamine receptor 2B (Homo sapiens, UniProt P41595)
Sequence (P41595 whole entry): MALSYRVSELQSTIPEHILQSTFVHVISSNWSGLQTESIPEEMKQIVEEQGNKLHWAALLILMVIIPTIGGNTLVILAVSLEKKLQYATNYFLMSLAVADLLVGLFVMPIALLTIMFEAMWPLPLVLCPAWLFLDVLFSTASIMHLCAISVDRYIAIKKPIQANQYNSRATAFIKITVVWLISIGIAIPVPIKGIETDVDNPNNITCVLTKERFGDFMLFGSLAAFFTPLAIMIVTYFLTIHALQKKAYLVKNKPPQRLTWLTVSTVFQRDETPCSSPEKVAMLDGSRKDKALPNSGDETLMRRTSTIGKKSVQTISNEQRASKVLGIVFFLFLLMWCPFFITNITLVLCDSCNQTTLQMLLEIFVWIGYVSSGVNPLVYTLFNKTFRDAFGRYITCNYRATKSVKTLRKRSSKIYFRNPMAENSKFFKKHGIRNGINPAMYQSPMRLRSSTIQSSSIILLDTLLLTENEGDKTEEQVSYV
Assay: Activity at 5HT2B receptor assessed as calcium mobilization by FLIPR
pEC50: −log10 of the molar value.
metric: pEC50

Supply recorded pEC50 for `CN1CCN(C[C@H](c2cccc(OC(F)(F)F)c2)C2(O)CCCCC2)CC1.Cl.Cl` here. < 5.00

---

Property: Activity; scope: individual compounds
Target: Sodium-dependent dopamine transporter (Homo sapiens)
Sequence (Q01959 whole entry): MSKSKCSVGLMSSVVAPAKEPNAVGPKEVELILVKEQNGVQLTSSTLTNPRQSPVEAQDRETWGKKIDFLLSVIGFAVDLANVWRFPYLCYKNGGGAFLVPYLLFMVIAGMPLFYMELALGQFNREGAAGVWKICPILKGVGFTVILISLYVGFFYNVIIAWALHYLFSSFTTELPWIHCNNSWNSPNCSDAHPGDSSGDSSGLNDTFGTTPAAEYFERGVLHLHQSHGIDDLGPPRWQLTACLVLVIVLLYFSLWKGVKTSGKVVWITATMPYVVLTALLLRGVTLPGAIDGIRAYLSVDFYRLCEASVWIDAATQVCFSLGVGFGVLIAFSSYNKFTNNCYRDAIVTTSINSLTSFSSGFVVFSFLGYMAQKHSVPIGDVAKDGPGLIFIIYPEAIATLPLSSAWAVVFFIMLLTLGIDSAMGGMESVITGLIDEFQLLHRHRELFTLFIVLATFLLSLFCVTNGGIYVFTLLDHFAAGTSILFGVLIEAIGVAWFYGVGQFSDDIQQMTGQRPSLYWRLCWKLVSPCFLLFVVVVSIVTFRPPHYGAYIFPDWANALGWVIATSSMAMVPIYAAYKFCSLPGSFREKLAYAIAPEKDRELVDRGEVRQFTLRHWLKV
Test: Displacement of [3H]WIN-35428 from human recombinant dopamine transporter expressed in CHO cells at 1000 nM
Assay type: cell-based
Number in %, nothing else.

For orientation, consider the following solved cases.
compound: COc1cccc(C(CN2CCN(C)CC2)C2(O)CCCCC2)c1 (stereo unspecified)
display.unit: %
numeric.result: 4
--
compound: CN(C)CC(c1cccc(Cl)c1)C1(O)CCCCC1 (stereo unspecified)
display.unit: %
numeric.result: 28
--
compound: OC1(C(CN2CCNCC2)c2cccc(OC(F)(F)F)c2)CCCCC1 (stereo unspecified)
display.unit: %
numeric.result: 13
--
compound: CN(C)CC(c1ccc(Cl)cc1)C1(O)CCCCC1 (stereo unspecified)
display.unit: %
numeric.result: 23

Give the value of Activity reported for the following: COc1cccc(C(CN(C)C)C2(O)CCCCC2)c1 (stereo unspecified) 9

Give the reported Activity for this compound. `OC1([C@@H](CN2CCNCC2)c2cccc(OC(F)(F)F)c2)CCCCC1` 15

---

Molecular target: Sodium-dependent dopamine transporter (Homo sapiens)
Assay: Displacement of [3H]WIN-35428 from human recombinant dopamine transporter expressed in CHO cells at 1000 nM
Assay type: cell-based
Listed compounds paired with reported Activity
Numeric answer only, unit % assumed.

compound: CN(C)CC(c1cccc(C(F)(F)F)c1)C1(O)CCCCC1 (centres undefined)
study.target: Sodium-dependent dopamine transporter (Homo sapiens)
Activity / %: 15

Respond only with Activity recorded for CN1CCN(CC(c2cccc(C(F)(F)F)c2)C2(O)CCCCC2)CC1 (centres undefined) 6

---

Assay: Half life in Sprague-Dawley rat at 30 mg/kg, ip
Format: ADME, organism-based
Set-up: dose 30 mg/kg, route intraperitoneal
Settings: in vivo
metric: half-life
Show the value, then the unit it is measured in.

Given `CN1CCN(C[C@H](c2cccc(OC(F)(F)F)c2)C2(O)CCCCC2)CC1.Cl.Cl` , respond with its half-life. 2.3 h

---

Assay: Plasma concentration in Sprague-Dawley rat at 30 mg/kg, ip after 0.033 hrs
Assay type: ADME, organism-based
Set-up: dose 30 mg/kg, route intraperitoneal
metric: concentration at 0.033 h

Return value of concentration at 0.033 h for input `CN1CCN(C[C@H](c2cccc(OC(F)(F)F)c2)C2(O)CCCCC2)CC1.Cl.Cl` , no commentary. 942 ng/mL

---

Experiment: Plasma concentration in Sprague-Dawley rat at 30 mg/kg, ip after 8 hrs
Format: ADME, organism-based
Set-up: dose 30 mg/kg, route intraperitoneal
metric: concentration at 8 h (µg/mL)
Report as a plain number; the unit µg/mL is understood.

Identify concentration at 8 h associated with the molecule `CN1CCN(C[C@H](c2cccc(OC(F)(F)F)c2)C2(O)CCCCC2)CC1.Cl.Cl` 0.143

---

Target: Sodium-dependent serotonin transporter (Homo sapiens, UniProt P31645)
Assay: Inhibition of 5HT uptake at human SERT expressed in human JAR cells at 1000 nM
Type: cell-based
Sequence (P31645 whole entry, looked up): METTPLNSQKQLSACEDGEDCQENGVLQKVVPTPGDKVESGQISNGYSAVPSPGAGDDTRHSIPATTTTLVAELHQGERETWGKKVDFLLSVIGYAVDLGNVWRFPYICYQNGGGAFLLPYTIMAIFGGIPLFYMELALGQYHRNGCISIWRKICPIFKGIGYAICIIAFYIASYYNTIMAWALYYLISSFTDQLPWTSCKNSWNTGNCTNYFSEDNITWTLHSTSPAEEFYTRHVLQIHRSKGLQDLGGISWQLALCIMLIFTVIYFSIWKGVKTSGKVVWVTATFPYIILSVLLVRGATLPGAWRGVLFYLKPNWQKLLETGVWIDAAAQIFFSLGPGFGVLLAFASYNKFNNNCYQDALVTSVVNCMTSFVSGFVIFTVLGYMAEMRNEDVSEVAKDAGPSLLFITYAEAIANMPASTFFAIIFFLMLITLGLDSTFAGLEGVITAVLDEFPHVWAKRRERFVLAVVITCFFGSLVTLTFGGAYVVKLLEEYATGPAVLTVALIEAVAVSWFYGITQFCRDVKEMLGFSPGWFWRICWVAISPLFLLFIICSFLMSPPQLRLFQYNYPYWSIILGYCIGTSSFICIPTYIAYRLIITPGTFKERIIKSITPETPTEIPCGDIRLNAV
metric: inhibition (%)
The response must be a number in % with no trailing unit.

compound: OC1(C(CN2CCNCC2)c2cccc(C(F)(F)F)c2)CCCCC1 (centres undefined)
metric: inhibition
numeric.result: 13

Give inhibition for the following compound: CN1CCN(CC(c2cccc(OC(F)(F)F)c2)C2(O)CCCCC2)CC1 (centres undefined) 12

For `CN1CCN(C[C@H](c2cccc(OC(F)(F)F)c2)C2(O)CCCCC2)CC1.Cl.Cl` , write its inhibition. 3

Give the measured inhibition for CN1CCN(CC(c2ccc(Cl)cc2)C2(O)CCCCC2)CC1 (centres undefined) 0

---

Test: Plasma concentration in Sprague-Dawley rat at 30 mg/kg, po after 4 hrs
Type: ADME, organism-based
Set-up: dose 30 mg/kg, route oral
metric: concentration at 4 h (ng/mL)
Hi! Could you send only the number? It should be in ng/mL, unit omitted.

Respond only with concentration at 4 h recorded for `CN1CCN(C[C@H](c2cccc(OC(F)(F)F)c2)C2(O)CCCCC2)CC1.Cl.Cl` 79.5

---

The listing below reports pIC50 for compounds tested on Sodium-dependent noradrenaline transporter (Homo sapiens).
Please express pIC50 as -log10 of the molar concentration.

Here are 4 compounds together with their reported answers.
compound: CN(C)CC(c1cccc(C(F)(F)F)c1)C1(O)CCCCC1 (centres undefined)
pIC50: 7.49
//
compound: CN1CCN(C[C@@H](c2cccc(Cl)c2)C2(O)CCCCC2)CC1
pIC50: 6.24
//
compound: CN1CCN(CC(c2cccc(Cl)c2)C2(O)CCCCC2)CC1 (centres undefined)
pIC50: 7.24
//
compound: OC1(C(CN2CCNCC2)c2cccc(C(F)(F)F)c2)CCCCC1 (centres undefined)
pIC50: 7.03

# return recorded pIC50 for input CN1CCN(CC(c2cccc(F)c2)C2(O)CCCCC2)CC1 (centres undefined) 6.62

Identify the reported pIC50 for the following entry. CN(C)CC(c1ccc(Cl)cc1)C1(O)CCCCC1 (centres undefined) 6.92

Give the measured pIC50 for OC1(C(CN2CCNCC2)c2ccc(F)cc2)CCCCC1 (centres undefined) 5.82

Answer with the recorded pIC50 for the compound listed here: CN(C)CC(c1ccccc1Cl)C1(O)CCCCC1 (centres undefined) 6.69

Please supply the value of reported pIC50 for the item `OC1([C@@H](CN2CCNCC2)c2cccc(OC(F)(F)F)c2)CCCCC1` 5.89

Reference source for all entries: ChEMBL document CHEMBL1155011
